EXPERIMENT: Stability of peptide GE11 in human serum at 37° C. (RP-HPLC)
Assay type: in vitro ADME
CONDITION SET: 1 h
PARAMETER MEASURED: remaining at 1 h (%)
One number for each entry, in %.

Given the compound `CC[C@H](C)[C@H](NC(=O)[C@@H](NC(=O)[C@H](CC(N)=O)NC(=O)[C@H](CCC(N)=O)NC(=O)[C@@H]1CCCN1C(=O)[C@@H](NC(=O)[C@H](Cc1ccc(O)cc1)NC(=O)CNC(=O)[C@H](Cc1ccc(O)cc1)NC(=O)[C@H](Cc1c[nH]c2ccccc12)NC(=O)[C@H](Cc1c[nH]cn1)NC(=O)[C@@H](N)Cc1ccc(O)cc1)[C@@H](C)O)C(C)C)C(=O)O` , what is its reported remaining at 1 h?
49

----------
EXPERIMENT: Stability of peptide GE11 in human serum at 37° C. (RP-HPLC)
Format: in vitro ADME
CONDITION SET: 7 h
PARAMETER MEASURED: remaining at 7 h (%)
One number for each entry, in %.

Record request: remaining at 7 h value, item CC[C@H](C)[C@H](NC(=O)[C@@H](NC(=O)[C@H](CC(N)=O)NC(=O)[C@H](CCC(N)=O)NC(=O)[C@@H]1CCCN1C(=O)[C@@H](NC(=O)[C@H](Cc1ccc(O)cc1)NC(=O)CNC(=O)[C@H](Cc1ccc(O)cc1)NC(=O)[C@H](Cc1c[nH]c2ccccc12)NC(=O)[C@H](Cc1c[nH]cn1)NC(=O)[C@@H](N)Cc1ccc(O)cc1)[C@@H](C)O)C(C)C)C(=O)O [GE11]
2

----------
System: MDA-MB-468
EXPERIMENT: Cytotoxicity MTT/MTS assay, MDA-MB-468
Assay type: cell-based
CONDITION SET: MDA-MB-468 (TNBC) cells
PARAMETER MEASURED: pIC50
Give bare numbers, as −log10 of the molar value.

Record lookup: for MDA-MB-468, what pIC50 belongs to COc1cccc2c1C(=O)c1c(O)c3c(c(O)c1C2=O)C[C@@](O)(C(=O)CO)C[C@@H]3O[C@H]1C[C@H](N)[C@H](O)[C@H](C)O1 [Free Dox, doxorubicin, reference compound] ?
6.24
